Each recorded value in this set is attributed to PubChem BioAssay AID651629.

Below, each of the compounds is paired with its reported inhibition value.
assayOverview: TAG lipid buildup inhibition in H9c2 – cell-based, single concentration, Nile Red fluorescence, confirmation (AID 651629);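 also: plate controls were DMSO only wells for no effect and Triacsin C treated wells for full effect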
conditionLabel: H9c2 lipid accumulation, at 12.5 µM, active compounds read high, cells loaded with 200 µM oleic acid
This is one part of the list.

# compound, inhibition, %
rows = [
    ("COc1ccc2sc(-c3ccc(S(C)(=O)=O)cc3)c(C#Cc3cncn3C)c2c1", 74.2),
    ("CC(C)C(=O)N1CCC2(CC1)Oc1ccc(F)cc1C(=O)C21CC(c2ccccc2)=NO1 (stereo unspecified)", -2.17),
    ("O=C(CSc1nc2ccc(Nc3nc(N4CCOCC4)nc(N4CCOCC4)n3)cc2s1)NCc1ccco1", 65.5),
    ("COc1ccccc1C1C2=C(COC2=O)Nc2cc3c(cc21)OCO3 (stereo unspecified)", 61.4),
    ("Cc1cc(N/N=C\\c2ccc(Br)cc2)nc(-n2nc(C)cc2C)n1", 58.6),
    ("Cc1ccccc1OCC(=O)Nc1ccc(N2CCN(C(=O)C(C)C)CC2)c(Cl)c1", 7.1),
    ("C=CCNC(=S)N/N=C/c1ccc(C)s1", 24.3),
    ("C/C(=N\\Nc1ccc(Cl)nn1)c1ccccc1O", 66.4),
    ("O=C(Nc1nc(-c2ccncc2)cs1)C1COc2ccccc2O1 (stereo unspecified)", 31.4),
    ("CCCOC(=O)c1[nH]c2c(c1C)C(=O)CC(c1cccs1)C2 (stereo unspecified)", 35.2),
    ("CCCCN1C(=O)/C(=C/C=C2/C=Cc3ccccc3N2CC)SC1=S", 127),
]
